B1: Tudor domain-containing protein 3 (Homo sapiens), Q9H7E2 (parent)
chain: MLRLQMTDGHISCTAVEFSYMSKISLNTPPGTKVKLSGIVDIKNGFLLLNDSNTTVLGGEVEHLIEKWELQRSLSKHNRSNIGTEGGPPPFVPFGQKCVSHVQVDSRELDRRKTLQVTMPVKPTNDNDEFEKQRTAAIAEVAKSKETKTFGGGGGGARSNLNMNAAGNRNREVLQKEKSTKSEGKHEGVYRELVDEKALKHITEMGFSKEASRQALMDNGNNLEAALNVLLTSNKQKPVMGPPLRGRGKGRGRIRSEDEEDLGNARPSAPSTLFDFLESKMGTLNVEEPKSQPQQLHQGQYRSSNTEQNGVKDNNHLRHPPRNDTRQPRNEKPPRFQRDSQNSKSVLEGSGLPRNRGSERPSTSSVSEVWAEDRIKCDRPYSRYDRTKDTSYPLGSQHSDGAFKKRDNSMQSRSGKGPSFAEAKENPLPQGSVDYNNQKRGKRESQTSIPDYFYDRKSQTINNEAFSGIKIEKHFNVNTDYQNPVRSNSFIGVPNGEVEMPLKGRRIGPIKPAGPVTAVPCDDKIFYNSGPKRRSGPIKPEKILESSIPMEYAKMWKPGDECFALYWEDNKFYRAEVEALHSSGMTAVVKFIDYGNYEEVLLSNIKPIQTEAWEEEGTYDQTLEFRRGGDGQPRRSTRPTQQFYQPPRARN

# Variants of: B1
# applied-conditions: with rpb1_human POLR2A
readout-name: effect of a mutation on the interaction

1) Y566F: disrupting interaction
2) D569A: disrupting interaction
